Reported Ki against Somatostatin receptor type 5 (Homo sapiens, UniProt P35346), gathered from multiple publications, appears below.
Sequence (P35346 whole entry): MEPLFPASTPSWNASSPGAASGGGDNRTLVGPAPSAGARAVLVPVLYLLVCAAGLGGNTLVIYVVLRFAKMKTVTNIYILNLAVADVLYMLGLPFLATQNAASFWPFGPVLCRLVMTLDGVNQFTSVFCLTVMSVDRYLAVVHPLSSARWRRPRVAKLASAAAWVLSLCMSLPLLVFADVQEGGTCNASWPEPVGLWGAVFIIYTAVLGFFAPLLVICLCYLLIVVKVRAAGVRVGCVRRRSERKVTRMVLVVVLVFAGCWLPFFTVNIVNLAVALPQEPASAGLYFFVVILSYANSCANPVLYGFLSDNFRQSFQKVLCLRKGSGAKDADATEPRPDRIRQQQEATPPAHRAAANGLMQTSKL
Field format: number, assumed nM, no unit text.

CC(O)[C@@H](NC(=O)[C@H](CCCCN)NC(=O)[C@@H](Cc1c[nH]c2ccccc12)NC(=O)[C@H](Cc1ccc(O)cc1)NC(=O)C(Cc1ccccc1)NC(=O)C(N)CS)C(=O)NC(Cc1ccccc1)C(=O)NC(CS)C(N)=O (some centres undefined): 0.34
C[C@@H](c1c[nH]c2ccccc12)[C@@H](NC(=O)N1CCC(n2c(=O)[nH]c3ccccc32)CC1)C(=O)NC(CCCCN)C(=O)OC(C)(C)C (some centres undefined): 163
CSCC[C@H](NC(=O)[C@H](CCCN=C(N)N)NC(=O)[C@@H](N)CC(=O)O)C(=O)N1CCC[C@H]1C(=O)N[C@H]1CSSC[C@@H](C(=O)N[C@@H](CCCCN)C(=O)O)NC(=O)[C@H](CO)NC(=O)[C@H](CO)NC(=O)[C@H](Cc2ccccc2)NC(=O)[C@H]([C@@H](C)O)NC(=O)[C@H](CCCCN)NC(=O)[C@H](Cc2c[nH]c3ccccc23)NC(=O)[C@H](Cc2ccccc2)NC(=O)[C@H](Cc2ccccc2)NC(=O)[C@H](CC(N)=O)NC(=O)[C@H](CCCN=C(N)N)NC1=O: 0.4

Below: the item to evaluate.
For the compound CC(c1c[nH]c2ccccc12)C(NC(=O)N1CCC(n2c(=O)[nH]c3ccccc32)CC1)C(=O)NCC1CCCC(CN)C1 (centres undefined) , give its measured Ki value.
4260
